Please respond with reported normalized growth for every item in the list.
- Run description: chemical genetic growth profiling, strain panel (AID 1159580);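 note: tested at 20 µM; growth read once vehicle control cultures reached saturation at 30 °C; 1 = growth at the plate median or of vehicle wells; lower values mean less growth of the strain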
- Cond: S. cerevisiae deletion strains, growth OD, locus YAL013W, strain DEP1, active compounds read low
The campaign covered roughly 5,500 compounds. About 2,000 (36%) were called active. Not shown: some 18% with an inconclusive outcome. This is one part of the list.
No unit in the answer, please; the number alone is enough.

Lab note: measured normalized growth of CCN(CC)CCOc1ccc2c(c1)C(=O)c1cc(OCCN(CC)CC)ccc1-2 was 1

Lab note: measured normalized growth of CCCC(C)C1(CC)C(=O)NC(=O)NC1=O (stereo not drawn) was 1.01

Lab note: measured normalized growth of CC1C(c2ccccc2)OCCN1CN1C(=O)c2ccccc2C1=O (stereo not drawn) was 1.02
